Biological target: mPAD4 (Mus musculus)
Sequence (Q9Z183 whole entry): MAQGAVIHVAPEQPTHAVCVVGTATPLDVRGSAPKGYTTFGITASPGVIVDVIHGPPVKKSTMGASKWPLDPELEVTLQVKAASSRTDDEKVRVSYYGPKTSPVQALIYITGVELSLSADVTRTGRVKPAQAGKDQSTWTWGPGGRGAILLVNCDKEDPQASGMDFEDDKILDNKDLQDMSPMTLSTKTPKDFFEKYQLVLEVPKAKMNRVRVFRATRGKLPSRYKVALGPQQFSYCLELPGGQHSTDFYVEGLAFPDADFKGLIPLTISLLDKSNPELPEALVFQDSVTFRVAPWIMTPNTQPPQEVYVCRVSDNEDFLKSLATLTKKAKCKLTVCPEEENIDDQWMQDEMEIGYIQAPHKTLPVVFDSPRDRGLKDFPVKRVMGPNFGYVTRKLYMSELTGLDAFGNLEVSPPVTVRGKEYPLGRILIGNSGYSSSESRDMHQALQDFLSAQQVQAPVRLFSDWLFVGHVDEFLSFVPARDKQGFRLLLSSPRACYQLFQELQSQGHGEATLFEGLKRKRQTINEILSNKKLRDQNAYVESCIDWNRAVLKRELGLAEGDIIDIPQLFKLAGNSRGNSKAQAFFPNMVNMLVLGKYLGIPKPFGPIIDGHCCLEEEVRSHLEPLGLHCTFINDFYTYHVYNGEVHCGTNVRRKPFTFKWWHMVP
Test: PAD4 inhibition assay, RapidFire mass spectrometry (mPAD4 RFMS)
Format: biochemical
Conditions: pIC50=-log(IC50); read-out: mPAD4 RFMS pIC50 (converted)
Structures can show the parent of a compound that is named as a salt.
RECORDED METRIC: IC50

1. Cn1c(-c2cc3ccc(C(F)(F)F)nc3n2CC2CC2)nc2cc(C(=O)N3C[C@H]4CC[C@@H]3[C@@H]4N)cnc21; ≤ 1000 nM
2. CCn1c(-c2cc3ccc(OC)nc3n2CC2CC2)nc2cc(C(=O)N3CCC[C@@H](N)C3)cnc21; ≤ 1000 nM
3. CCn1c(-c2nc3cc(C(=O)N4C[C@H]5CC[C@@H]4[C@@H]5N)cnc3n2C)cc2ccc(OC)nc21; ≤ 1000 nM
4. CC1CCC(N)CN1C(=O)c1cnc2c(c1)nc(-c1cc3cccnc3n1CC1CC1)n2C (stereo not shown); 1000 to 10000 nM
5. Cn1c(-c2cc3cccnc3n2CC2CC2)nc2cc(C(=O)N3C[C@H]4CC[C@@H]3[C@@H]4N)cnc21; ≤ 1000 nM
6. COc1ccc2cc(-c3nc4cc(C(=O)N5C[C@H]6CC[C@@H]5[C@@H]6N)cnc4n3C[C@H]3C[C@@](C)(OC)C3)n(CC3CC3)c2n1; ≤ 1000 nM
7. Cn1c(-c2cc3cccnc3n2CC(C)(F)F)nc2cc(C(=O)N3CCC[C@@H](N)C3)cnc21; 1000 to 10000 nM
8. CCn1c(-c2cc3cccnc3n2CC2CC2)nc2cc(C(=O)N3CCC[C@@H](N)C3)cnc21; ≤ 1000 nM
9. Cn1c(-c2cc3cccnc3n2CC2CC2)nc2cc(C(=O)N3CC[C@@H]4CCN[C@@H]4C3)cnc21 (single isomer, unassigned) [Compound I-10, hydrochloride]; 1000 to 10000 nM
10. COCCn1c(-c2cc3cccnc3n2CC2CC2)nc2cc(C(=O)N3C[C@H]4CC[C@@H]3[C@@H]4N)cnc21; 1000 to 10000 nM
11. CCn1c(-c2nc3cc(C(=O)N4C[C@H]5CC[C@@H]4[C@@H]5N)cnc3n2CCOC)cc2ccc(OC)nc21; 1000 to 10000 nM
12. N[C@@H]1[C@@H]2CC[C@H]1N(C(=O)c1cnc3c(c1)nc(-c1cc4cccnc4n1CC1CC1)n3CC(F)F)C2; ≤ 1000 nM
13. CO[C@]1(C)C[C@H](Cn2c(-c3cc4cccnc4n3CC3CC3)nc3cc(C(=O)N4C[C@H]5CC[C@@H]4[C@@H]5N)cnc32)C1; ≤ 1000 nM

---

Measured pIC50 accompanies every entry in the list below.
Biological target: UniProtKB Q9UM07
Assay: PAD4 inhibition assay, RapidFire mass spectrometry (hPAD4 RFMS)
Format: biochemical
Conditions: 100 nM hPAD4 enzyme, 50 μM substrate peptide, 65 mins at 37° C.; read-out: hPAD4 RFMS IC50
pIC50: −log10 of the molar value.
RECORDED METRIC: pIC50

1. CCn1c(-c2nc3cc(C(=O)N4C[C@H]5CC[C@@H]4[C@@H]5N)cnc3n2C)cc2cccnc21; 5.30 to 6.00
2. Cn1c(-c2cc3cccnc3n2CC2CC2)nc2cc(C(=O)N3CC[C@H]4CCN[C@H]4C3)cnc21 [Compound I-25]; ≤ 5.00
3. Cn1c(-c2cc3ccc(C(F)(F)F)nc3n2CC2CC2)nc2cc(C(=O)N3C[C@H]4CC[C@@H]3[C@@H]4N)cnc21; ≥ 6.00
4. CCn1c(-c2cc3ccc(OC)nc3n2CC2CC2)nc2cc(C(=O)N3CCC[C@@H](N)C3)cnc21; ≥ 6.00
5. Cn1c(-c2cc3cccnc3n2CC2CC2)nc2cc(C(=O)N3CC[C@@H]4CCN[C@@H]4C3)cnc21 [Compound I-26]; 5.30 to 6.00
6. Cn1c(-c2cc3cccnc3n2CC(F)(F)F)nc2cc(C(=O)N3CC[C@@H]4CCN[C@@H]4C3)cnc21 [Compound I-21]; ≤ 5.00
7. COCCn1c(-c2cc3cccnc3n2CC2CC2)nc2cc(C(=O)N3C[C@H]4CC[C@@H]3[C@@H]4N)cnc21; ≥ 6.00

---

Documented IC50 across a set of molecules
Biological target: UniProt:Q9UM07
Assay: PAD4 inhibition assay, RapidFire mass spectrometry (hPAD4 RFMS)
Assay type: biochemical
Conditions: pIC50=-log(IC50); read-out: hPAD4 RFMS pIC50 (converted)
RECORDED METRIC: IC50

1. COCCn1c(-c2cc3ccc(OC)nc3n2CC2CC2)nc2cc(C(=O)N3C[C@H]4CC[C@@H]3[C@@H]4N)cnc21 [Compound I-47]; ≤ 1 µM
2. CC1CCC(N)CN1C(=O)c1cnc2c(c1)nc(-c1cc3cccnc3n1CC1CC1)n2C (stereo not drawn) [Compound I-32]; 1 to 10 µM
3. Cn1c(-c2cc3cccnc3n2CC(F)(F)F)nc2cc(C(=O)N3CCC4CCNC4C3)cnc21 (stereo not drawn) [Compound I-6]; 10 to 100 µM

---

Target: hPAD4 (Homo sapiens)
Sequence (Q9UM07 whole entry): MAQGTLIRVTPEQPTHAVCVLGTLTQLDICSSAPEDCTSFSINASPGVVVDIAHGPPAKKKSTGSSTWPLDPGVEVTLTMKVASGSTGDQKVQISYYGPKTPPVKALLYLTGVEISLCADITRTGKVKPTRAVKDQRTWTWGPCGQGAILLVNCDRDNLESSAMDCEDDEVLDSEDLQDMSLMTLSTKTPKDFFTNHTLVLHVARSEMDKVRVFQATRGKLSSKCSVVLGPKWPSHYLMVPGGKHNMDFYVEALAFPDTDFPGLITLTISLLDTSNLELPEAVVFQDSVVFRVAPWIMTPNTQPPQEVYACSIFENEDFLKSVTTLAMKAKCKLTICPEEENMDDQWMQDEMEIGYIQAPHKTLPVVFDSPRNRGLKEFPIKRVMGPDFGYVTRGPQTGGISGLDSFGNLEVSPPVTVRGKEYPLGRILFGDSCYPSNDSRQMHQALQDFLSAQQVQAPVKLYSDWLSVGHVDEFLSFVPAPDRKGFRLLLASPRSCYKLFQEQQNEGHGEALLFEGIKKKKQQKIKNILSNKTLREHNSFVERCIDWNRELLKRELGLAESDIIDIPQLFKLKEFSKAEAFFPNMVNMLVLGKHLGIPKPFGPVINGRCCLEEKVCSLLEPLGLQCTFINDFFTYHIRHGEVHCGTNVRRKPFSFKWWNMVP
Experiment: PAD4 inhibition assay, RapidFire mass spectrometry (hPAD4 RFMS)
Type: biochemical
Conditions: 100 nM hPAD4 enzyme, 50 μM substrate peptide, 65 mins at 37° C.; read-out: hPAD4 RFMS IC50
pIC50: −log10 of the molar value.
Recorded measurements of pIC50, one per entry
RECORDED METRIC: pIC50

1) Cn1c(-c2cc3cc(F)c(F)nc3n2CC2CC2)nc2cc(C(=O)N3CCC[C@@H](N)C3)cnc21 [Compound I-14]; 5.30 to 6.00
2) Cn1c(-c2cc3cccnc3n2CC(F)(F)F)nc2cc(C(=O)N3CC[C@@H]4CCN[C@@H]4C3)cnc21 [Compound I-1]; ≤ 5.00
3) COc1ccc2cc(-c3nc4cc(C(=O)N5C[C@H]6CC[C@@H]5[C@@H]6N)cnc4n3C)n(CC3CC3)c2n1 [Compound I-44]; ≥ 6.00
4) Cn1c(-c2cc3cccnc3n2CC(F)(F)F)nc2cc(C(=O)N3CCC4CCNC4C3)cnc21 (stereo not shown) [Compound I-6]; ≤ 5.00

---

Biological target: mPAD4 (Mus musculus)
Assay: PAD4 inhibition assay, RapidFire mass spectrometry (mPAD4 RFMS)
Assay type: biochemical
Settings: read-out: mPAD4 RFMS IC50
pIC50: −log10 of the molar value. Counter-ions that a name gives are not always drawn.
Parameter pIC50: see the listing below.
RECORDED METRIC: pIC50

1. CCn1c(-c2nc3cc(C(=O)N4CCC[C@@H](N)C4)cnc3n2CC)cc2cccnc21; 5.30 to 6.00
2. N[C@@H]1[C@@H]2CC[C@H]1N(C(=O)c1cnc3c(c1)nc(-c1cc4cccnc4n1CC1CC1)n3CC(F)F)C2; ≥ 6.00
3. CCn1c(-c2nc3cc(C(=O)N4C[C@H]5CC[C@@H]4[C@@H]5N)cnc3n2C[C@H]2C[C@@](C)(OC)C2)cc2ccc(OC)nc21; ≥ 6.00
4. N[C@@H]1CCCN(C(=O)c2cnc3c(c2)nc(-c2cc4cccnc4n2CC2CC2)n3CC(F)F)C1; 5.30 to 6.00
5. CCn1c(-c2nc3cc(C(=O)N4C[C@H]5CC[C@@H]4[C@@H]5N)cnc3n2CCOC)cc2ccc(OC)nc21; 5.30 to 6.00
6. COCCn1c(-c2cc3ccc(OC)nc3n2CC2CC2)nc2cc(C(=O)N3C[C@H]4CC[C@@H]3[C@@H]4N)cnc21; ≥ 6.00
7. Cn1c(-c2cc3cccnc3n2CC2CC2)nc2cc(C(=O)N3C[C@H]4CC[C@@H]3[C@@H]4N)cnc21; ≥ 6.00
8. Cn1c(-c2cc3cccnc3n2CC2CC2)nc2cc(C(=O)N3CC[C@@H]4CCN[C@@H]4C3)cnc21 (single isomer, unassigned) [Compound I-10, hydrochloride]; 5.00 to 5.30
9. CC1CCC(N)CN1C(=O)c1cnc2c(c1)nc(-c1cc3cccnc3n1CC1CC1)n2C (stereo not drawn); 5.00 to 5.30
10. CCn1c(-c2cc3ccc(OC)nc3n2CC2CC2)nc2cc(C(=O)N3CCC[C@@H](N)C3)cnc21; ≥ 6.00
11. CCn1c(-c2cc3cccnc3n2CC2CC2)nc2cc(C(=O)N3CCC[C@@H](N)C3)cnc21; ≥ 6.00
12. CCn1c(-c2nc3cc(C(=O)N4C[C@H]5CC[C@@H]4[C@@H]5N)cnc3n2C)cc2ccc(OC)nc21; ≥ 6.00
13. CCn1c(-c2nc3cc(C(=O)N4CCC[C@@H](N)C4)cnc3n2CCOC)cc2cccnc21; 5.30 to 6.00
14. CCn1c(-c2nc3cc(C(=O)N4C[C@H]5CC[C@@H]4[C@@H]5N)cnc3n2C)cc2cccnc21; 5.30 to 6.00
15. COCCn1c(-c2cc3cccnc3n2CC2CC2)nc2cc(C(=O)N3C[C@H]4CC[C@@H]3[C@@H]4N)cnc21; 5.30 to 6.00
16. CCn1c(-c2nc3cc(C(=O)N4C[C@H]5CC[C@@H]4[C@@H]5N)cnc3n2CCOC)cc2cccnc21; 5.30 to 6.00
17. COCCn1c(-c2cc3cccnc3n2CC2CC2)nc2cc(C(=O)N3CCC[C@@H](N)C3)cnc21; 5.30 to 6.00
18. Cn1c(-c2cc3cccnc3n2CC(C)(F)F)nc2cc(C(=O)N3CCC[C@@H](N)C3)cnc21; 5.00 to 5.30
19. Cn1c(-c2cc3ccc(C(F)(F)F)nc3n2CC2CC2)nc2cc(C(=O)N3C[C@H]4CC[C@@H]3[C@@H]4N)cnc21; ≥ 6.00
20. Cn1c(-c2cc3cccnc3n2CC2CC2)nc2cc(C(=O)N3C[C@@H](N)C[C@H](F)C3)cnc21; ≥ 6.00
21. COc1ccc2cc(-c3nc4cc(C(=O)N5C[C@H]6CC[C@@H]5[C@@H]6N)cnc4n3C)n(CC3CC3)c2n1; ≥ 6.00
